Tested on: Porcine Ovarian Granulosa Cells
Assay: Test Example 7: inhibition of SNP-induced apoptosis of undifferentiated POGC
Type: cell-based
Conditions: Sus scrofa; for complete inhibition of apoptosis; SNP 0.5 mM; judged at 18 hours after SNP treatment; read-out: Minimum effective concentration
Here the recorded minimal effective concentration is given for each entry.
assay metric: minimal effective concentration (µM)

INSERT INTO results (compound, assay_metric, units, observed) VALUES
  ('Cc1[nH]c2ccccc2c1C1=C(c2c(C)[nH]c3ccccc23)C(=O)N(C)C1=O', 'minimal effective concentration', 'µM', 10),
  ('CN1C(=O)C(c2c[nH]c3ccc(F)cc23)=C(c2c[nH]c3ccc(F)cc23)C1=O', 'minimal effective concentration', 'µM', 10),
  ('CN1CCCC1CCn1cc(C2=C(c3c[nH]c4ccccc34)C(=O)NC2=O)c2ccccc21 (stereo not shown)', 'minimal effective concentration', 'µM', 3),
  ('Cc1ccc2c(C3=C(c4c[nH]c5cc(C)ccc45)C(=O)N(C)C3=O)c[nH]c2c1', 'minimal effective concentration', 'µM', 0.3);

* * *

Tested on: Porcine Ovarian Granulosa Cells
Assay: Test Example 7: inhibition of SNP-induced apoptosis of undifferentiated POGC
Assay type: cell-based
Settings: Sus scrofa; for complete inhibition of apoptosis; SNP 0.5 mM; judged at 18 hours after SNP treatment; read-out: Minimum effective concentration
assay metric: minimal effective concentration (µM)

INSERT INTO assay_data (compound, observed) VALUES
  ('CN1C(=O)C(c2c[nH]c3ccc(Br)cc23)=C(c2c[nH]c3ccc(Br)cc23)C1=O [Compound 42]', 1),
  ('c1ccc(N2CC(c3c[nH]c4ccccc34)C(c3c[nH]c4ccccc34)C2)cc1 (centres unmarked) [Compound 34]', 0.3),
  ('O=C1C(c2c[nH]c3ccccc23)=C(c2c[nH]c3ccccc23)C(=O)N1Cc1ccccc1 [Compound 49]', 1),
  ('CN(C)CC1CCn2c(c(C3=C(c4cn(C)c5ccccc45)C(=O)NC3=O)c3ccccc32)C1 (centres unmarked) [Compound 29]', 1),
  ('Cc1[nH]c2ccccc2c1C1=C(c2c[nH]c3ccccc23)C(=O)N(C)C1=O [Compound 46]', 10),
  ('CN1C(=O)C(c2c[nH]c3ccccc23)=C(c2c[nH]c3ccc(Cl)cc23)C1=O [Compound 43]', 3),
  ('CN1C(=O)C(c2cn(C)c3ccccc23)=C(c2cn(C)c3ccccc23)C1=O [Compound 36]', 10),
  ('COc1ccc2[nH]cc(C3=C(c4c[nH]c5ccc(OC)cc45)C(=O)N(C)C3=O)c2c1 [Compound 44]', 1);

* * *

Here the recorded minimal effective concentration is given for each entry.
Tested on: Porcine Ovarian Granulosa Cells
Test: Test Example 7: inhibition of SNP-induced apoptosis of undifferentiated POGC
Format: cell-based
Conditions: Sus scrofa; for complete inhibition of apoptosis; SNP 0.5 mM; judged at 18 hours after SNP treatment; read-out: Minimum effective concentration
assay metric: minimal effective concentration

INSERT INTO results (compound, assay_metric, observed) VALUES
  ('Cc1cccc2c(C3=C(c4c[nH]c5ccccc45)C(=O)N(C)C3=O)c[nH]c12', 'minimal effective concentration', '3 µM'),
  ('CN(C)CCCn1cc(C2=C(c3cn(CCCN(C)C)c4ccccc34)C(=O)N(C)C2=O)c2ccccc21', 'minimal effective concentration', '10 µM'),
  ('O=C1C(c2c[nH]c3ccccc23)=C(c2c[nH]c3ccccc23)C(=O)N1c1ccccc1', 'minimal effective concentration', '1 µM'),
  ('CN1C(=O)C(c2c[nH]c3ccccc23)C(c2cn(CCCN)c3ccccc23)C1=O (stereo not shown)', 'minimal effective concentration', '10 µM'),
  ('COc1cccc2[nH]cc(C3=C(c4c[nH]c5cccc(OC)c45)C(=O)N(C)C3=O)c12', 'minimal effective concentration', '3 µM'),
  ('Cc1ccc2[nH]cc(C3=C(c4c[nH]c5ccc(C)cc45)C(=O)N(C)C3=O)c2c1', 'minimal effective concentration', '1 µM'),
  ('CN1C(=O)C(c2c[nH]c3ccccc23)=C(c2cn(C)c3ccccc23)C1=O', 'minimal effective concentration', '10 µM');
